experiment: gradient 5% acetonitrile 3 min, to 50% in 2 min, to 85% in 15 min, held 3 min, 100 µL/min; conditions: column: Zorbax Extend-C18 2.1 x 50 mm; eluents: water / acetonitrile, 0.1% formic acid
Measured RP-LC retention time accompanies every entry in the list below.
Numeric only. Scale: s

Recorded RP-LC retention time, per entry:
> print(dat)
                                   molecule  unit.text  result
1  Cc1noc(COC2CCCN(C(=O)C3(c4ccccc4)CC3)C2)n1 (centres undefined)          s     791
2  Cc1ccc(-n2cc3c(N4CCCC(C(=O)NCCC5=CCCCC5)C4)ncnc3n2)cc1 (centres undefined)          s     792
3  O=C(NCCC1CCN(C(=O)Nc2ccc(F)cc2F)CC1)C1CCC1          s     720
4  O=C(NC1CCCCC1)N1CCN(c2ccc3nnc(C4CC4)n3n2)CC1          s     645
5  Cn1cc(-c2nc(C(=O)NCc3cccs3)cs2)c2cccnc21          s     851

I have this molecule here, O=C(CSc1ccc(N2CCCC(C(=O)NC3CC3)C2)nn1)Nc1ccc(F)c(Cl)c1 (centres undefined) , and I need its recorded RP-LC retention time.
660

I have this molecule here, Cc1ccc(CNC(=O)C2(C)CCN(S(=O)(=O)c3ccc(F)cc3)CC2)cc1 , and I need its recorded RP-LC retention time.
965

I have this molecule here, CN(CCNC(=O)CCC(=O)N1CCc2c(c(C(=O)N3CCCC3)nn2C)C1)C1CCCCC1 , and I need its recorded RP-LC retention time.
590

I have this molecule here, COC(=O)C1=CN(c2ccccc2)c2ccc(F)cc2S1(=O)=O , and I need its recorded RP-LC retention time.
817

I have this molecule here, Cc1ccccc1C(=O)N1C[C@@H](F)C[C@H]1C(=O)N1CCOCC1 , and I need its recorded RP-LC retention time.
620

I have this molecule here, O=C(CN1C(=O)C2CCCCN2c2ccc(C(=O)N3CCCC3)cc21)Nc1cccc(Cl)c1 (centres undefined) , and I need its recorded RP-LC retention time.
676

I have this molecule here, CCc1ccc2nc(Nc3ncc4c(n3)CC(c3cccc(Cl)c3)CC4=O)nc(C)c2c1 (centres undefined) , and I need its recorded RP-LC retention time.
896

I have this molecule here, CC(C)c1noc(C2CCCN(C(=O)NC3CCCCC3)CCC(=O)NCC2)n1 (centres undefined) , and I need its recorded RP-LC retention time.
752

I have this molecule here, CCc1cccc(C)c1Nc1c(-c2ccc(F)cc2)nc2nc(C)cc(C)n12 , and I need its recorded RP-LC retention time.
828

I have this molecule here, CCOC(=O)c1cnn(-c2ccc(C(=O)NCc3ccco3)cn2)c1C , and I need its recorded RP-LC retention time.
804

I have this molecule here, Cn1nc(-c2nc(C3CC3)no2)c2c1CCN(C(=O)c1ccc(C(F)(F)F)s1)C2 , and I need its recorded RP-LC retention time.
970

I have this molecule here, CCOCCCNC(=O)C1CCCN(c2nnc(C)c3c(C)n(-c4ccc(Cl)cc4)nc23)C1 (centres undefined) , and I need its recorded RP-LC retention time.
688

I have this molecule here, Cc1ccc(NC(=O)N2CCC(n3c(C(F)(F)F)nc4cccnc43)CC2)cc1F , and I need its recorded RP-LC retention time.
944

I have this molecule here, COc1ncccc1CNC(=O)c1sccc1C , and I need its recorded RP-LC retention time.
746
